B1: MATN2 (parent)
chain: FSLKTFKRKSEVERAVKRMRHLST

- Variants of: B1
- method.notes: protein stability index of a GFP-peptide fusion (GPS, HEK-293T) (PSI 1-6); higher = more stable;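 also: lentivirally expressed fusions sorted by FACS into six bins by GFP to DsRed ratio, PSI derived from sequencing read proportions per bin multiplied by bin number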
- condition.set: c terminus: a fixed tail appended
# protein stability index listing for each entry below

construct.sequence: FSLKEFKRKSEVERAVKRMRHLST
protein stability index: 1.47
--
construct.sequence: FSLHTFKRKSEVERAVKRMRHLST
protein stability index: 2.21
--
construct.sequence: VSLKTFKRKSEVERAVKRMRHLST
protein stability index: 2.56
--
construct.sequence: FSLKTFKRKSEVRRAVKRMRHLST
protein stability index: 2.22
--
construct.sequence: FSLKTFKRKSEVWRAVKRMRHLST
protein stability index: 1.4
--
construct.sequence: FSLKTFKRKSEVERAVKRMRHLSH
protein stability index: 2.57
--
construct.sequence: FSLKTFKRKSEVERGVKRMRHLST
protein stability index: 2.35
--
construct.sequence: FSLKTFKRKSEVERAVKRHRHLST
protein stability index: 2.89
--
construct.sequence: FSLKTFKRKSEVERAVKRMRHLDT
protein stability index: 3.11
--
construct.sequence: FSLKTDKRKSEVERAVKRMRHLST
protein stability index: 2.43
--
construct.sequence: FSLKTFKRKSEVERAVSRMRHLST
protein stability index: 2.65
--
construct.sequence: FSLKTFKPKSEVERAVKRMRHLST
protein stability index: 2.7
--
construct.sequence: FSLKTFKRKSEVERAVKRMAHLST
protein stability index: 2.14
--
construct.sequence: FSLKTFKRKSEVERAVKRMRHLYT
protein stability index: 2.3
--
construct.sequence: FSLKIFKRKSEVERAVKRMRHLST
protein stability index: 2.29
--
construct.sequence: FDLKTFKRKSEVERAVKRMRHLST
protein stability index: 2.77
--
construct.sequence: FMLKTFKRKSEVERAVKRMRHLST
protein stability index: 2.5
--
construct.sequence: FSLKTFKRKSEVERANKRMRHLST
protein stability index: 2.47
--
construct.sequence: FSLKTFKRKSEVERAAKRMRHLST
protein stability index: 2.82
--
construct.sequence: FSLKTFKVKSEVERAVKRMRHLST
protein stability index: 2.15
--
construct.sequence: FSLKTFKRKSEVERAMKRMRHLST
protein stability index: 2.93
--
construct.sequence: ESLKTFKRKSEVERAVKRMRHLST
protein stability index: 2.72
--
construct.sequence: FSLKTFKRKSEVERAVKRMRHLSV
protein stability index: 1.62
